All figures here come from patent US6599917B1.

Test system: triglyceride biosynthesis
Experiment: Measurement of triglyceride biosynthesis inhibitive activity in a rat liver cell
Type: cell-based
Details: Rattus norvegicus, 6 h, read-out: Triglyceride biosynthesis inhibitive activity inhibition in 1 μM of the specimen
# Lookup of reported inhibition at 1 µM keyed by entry
measured endpoint: inhibition at 1 µM (%)

> print(dat)
                                   compound   measured.endpoint  unit.of.measurement  assay.value
1  CO[C@H]1C(=O)N(c2ccc(C#C[C@@]3(O)CN4CCC3CC4)c(Cc3ccccc3)n2)C[C@H]1O [Example 124]  inhibition at 1 µM                    %           79
2  CO[C@H]1CN(c2ccc(C#C[C@@]3(O)CN4CCC3CC4)c(Cc3ccccc3)n2)C[C@H]1O [Example 106]  inhibition at 1 µM                    %           81
3  O[C@]1(C#Cc2cnc(-c3cccnc3)cc2Cc2ccccc2)CN2CCC1CC2 [Example 176]  inhibition at 1 µM                    %           74
4  O[C@]1(C#Cc2cnc(-c3ccccn3)cc2Cc2ccccc2)CN2CCC1CC2 [Example 179]  inhibition at 1 µM                    %           84
5  O[C@]1(C#Cc2ccc(OCCCF)nc2Cc2ccccc2)CN2CCC1CC2 [Example 150]  inhibition at 1 µM                    %           80
6  CO[C@@H]1CN(c2ccc(C#C[C@@]3(O)CN4CCC3CC4)c(Cc3ccccc3)n2)C[C@@H]1F [Example 110]  inhibition at 1 µM                    %           84
7  OCCCOc1ccc(C#C[C@@]2(O)CN3CCC2CC3)c(Cc2ccccc2)n1 [Example 166]  inhibition at 1 µM                    %           82
8  O[C@]1(C#Cc2ccc(OCC3OCCO3)nc2Cc2ccccc2)CN2CCC1CC2 [Example 153]  inhibition at 1 µM                    %           85
